testDescription: ATG_AP_1_CIS: Attagene CIS-FACTORIAL HepG2 Assay for human Activator Protein 1 (AP-1) (AID 2282931)
protocolConditions: HepG2 Attagene cis-factorial AP-1 reporter mRNA; actives raise or lower the signal
Active and inactive are the calls of the source. The calls were made as follows: active = hit-call score of the fitted dose curve at least 0.9, where 1 is the maximum; inactive = score below 0.9.
Pick one and only one: active, inactive

**Query** Would you mind telling me which call this test gave CCCCCCCCN(C)CCCCCCCC ?
**Result** inactive

**Query** Would you mind telling me which call this test gave Cc1oc2c(NC(=O)c3c(Cl)cccc3Cl)cccc2c1C(C)(C)O ?
**Result** active

**Query** Would you mind telling me which call this test gave COc1cc(C(=O)NC2CCN(C)CC2)ccc1Nc1ncc2c(n1)N(C1CCCC1)CC(F)(F)C(=O)N2C ?
**Result** active

**Query** Would you mind telling me which call this test gave CC(C)(C)c1csc(-c2cc3cc(OCc4ccccc4CC(=O)O)ccc3o2)n1 ?
**Result** active

**Query** Would you mind telling me which call this test gave CN1C(=O)CC[C@H]1c1cccnc1 ?
**Result** inactive

**Query** Would you mind telling me which call this test gave O=C1O[C@H]([C@@H](O)CO)C(O)=C1O ?
**Result** inactive

**Query** Would you mind telling me which call this test gave Clc1cc(Cl)c2c(c1)N=C1CCCCCN1C2 ?
**Result** inactive

**Query** Would you mind telling me which call this test gave NC(=O)c1nc(-c2cccc(-c3cc(F)ccc3OCC(F)(F)C(F)(F)F)c2)n[nH]1 ?
**Result** active

**Query** Would you mind telling me which call this test gave Cc1cc2c(cc1C(F)(F)F)N(C(=O)Nc1ccc(Oc3cccnc3C)nc1)CC2 ?
**Result** inactive

**Query** Would you mind telling me which call this test gave O=C1c2ccccc2C(=O)N1CCc1noc(-c2ccc(CN3CCCCCC3)s2)n1 ?
**Result** active

**Query** Would you mind telling me which call this test gave O=CCCCC=O ?
**Result** inactive

**Query** Would you mind telling me which call this test gave O=C(Nc1ccc(Cl)cc1)Nc1ccc(Cl)c(Cl)c1 ?
**Result** active
